System: K-562 leukemia
Protocol description: NCI tumour cell line growth inhibition, 48 h
Readout: TGI (µM)

{"Substance smiles": "C[N+](C)([O-])CCC=C1c2ccccc2CCc2ccccc21", "Readout": "TGI", "Modifier": "=", "Observed": 52}
{"Substance smiles": "C/C1=C\\CC[C@@]2(C)O[C@@H]2[C@H]2OC(=O)[C@@H](CN(C)C)[C@@H]2CC1", "Readout": "TGI", "Modifier": "=", "Observed": 59.1}
{"Substance smiles": "NC(=NCCCOc1ccc(Cl)cc1)Nc1ccc(C(F)(F)F)cc1", "Readout": "TGI", "Modifier": "=", "Observed": 5.6}
{"Substance smiles": "CCN1CCN(c2ccc(Nc3cc(N(C)C(=O)Nc4c(Cl)c(OC)cc(OC)c4Cl)ncn3)cc2)CC1", "Readout": "TGI", "Modifier": "=", "Observed": 5.5}
{"Substance smiles": "Cc1c2cccnc2c(C)c2c1c1cc(CO)ccc1n2C", "Readout": "TGI", "Modifier": "=", "Observed": 20.6}
{"Substance smiles": "NC(N)=NCCN=C(N)N", "Readout": "TGI", "Modifier": ">", "Observed": 100}
{"Substance smiles": "O=Cc1cc2c(cc1-c1c(C=O)ccc3c1OCO3)OCO2", "Readout": "TGI", "Modifier": ">", "Observed": 10}
{"Substance smiles": "CC(C)(C)OC(=O)NCC(O)CNC(=O)OC(C)(C)C", "Readout": "TGI", "Modifier": ">", "Observed": 100}

====

System: SNB-75 CNS
Protocol description: NCI tumour cell line growth inhibition, 48 h
Readout: TGI

{"Compound": "CCOC(=O)Oc1c(OC)cc(C(=O)NC2CCc3cc(OC)c(OC)c(OC)c3-c3ccc(SC)c(=O)cc32)cc1OC (centres undefined)", "Readout": "TGI", "Observed": "< 0.007 µM"}
{"Compound": "CCOC(=O)C1(Cc2ccc3c(c2)CCC3)Cc2cc3c(cc2C1)CCC3", "Readout": "TGI", "Observed": "> 100 µM"}
{"Compound": "Ic1ccc(Nc2nc3nonc3nc2Nc2ccc(I)cc2)cc1", "Readout": "TGI", "Observed": "> 100 µM"}
{"Compound": "C=C(CCCCC)CN1CCCC1[C@@](C)(O)CC(=O)OCC (some centres undefined)", "Readout": "TGI", "Observed": "> 100 µM"}
{"Compound": "NC(N)=NCCN=C(N)N", "Readout": "TGI", "Observed": "> 100 µM"}
{"Compound": "CC(C)=C[C@@H]1C[C@H](C)[C@H]2CC[C@H](C)C3=C2[C@](O)(OC3=O)[C@]1(C)O", "Readout": "TGI", "Observed": "> 100 µM"}
{"Compound": "COc1ncnc(C2CC2)c1-c1ncc2cnn(Cc3ccc(-c4nc(C(F)(F)F)cn4C(C)C)cc3)c2n1", "Readout": "TGI", "Observed": "53.6 µM"}
{"Compound": "O=C(OC(=O)n1ccc2ccccc21)n1ccc2ccccc21", "Readout": "TGI", "Observed": "> 100 µM"}
{"Compound": "Cc1cc(C)c(S(=O)(=O)N2CCCN(S(=O)(=O)c3c(C)cc(C)cc3C)OCCCON(S(=O)(=O)c3c(C)cc(C)cc3C)CCCN(S(=O)(=O)c3c(C)cc(C)cc3C)OCCCO2)c(C)c1", "Readout": "TGI", "Observed": "> 100 µM"}

====

Items are presented alongside their recorded TGI.
System: BT-549 breast
Protocol description: NCI tumour cell line growth inhibition, 48 h

{"Molecule": "COc1ccc(C(C)NNC(=O)c2ccncc2)c(OC)c1 (stereo not drawn)", "Value unit": "µM", "Modifier": ">", "TGI": 100}
{"Molecule": "CCCCc1c(OC)cc(O)c2c1C(=O)c1[nH]c(C(=O)O)c(O)c(=O)c1C2=O", "Value unit": "µM", "Modifier": "=", "TGI": 52.8}
{"Molecule": "S=C(c1c[nH]c2ccccc12)N1CCOCC1", "Value unit": "µM", "Modifier": ">", "TGI": 100}
{"Molecule": "COc1cc(-c2cc(=O)c3c(OC)c(OC)c(OC)c(OC)c3o2)c(OC)c(OC)c1OC", "Value unit": "µM", "Modifier": "=", "TGI": 56.8}
{"Molecule": "CC(=O)OCc1cc(CCC(=O)NCCNc2c3ccccc3nc3ccccc23)cc(COC(C)=O)c1O[Si](C)(C)C(C)(C)C", "Value unit": "µM", "Modifier": "=", "TGI": 34.2}
{"Molecule": "COC(=O)C(C)(NC(=O)C(CC(=O)OC(C)(C)C)NC(=O)OC(C)(C)C)c1ccccc1 (stereo not drawn)", "Value unit": "µM", "Modifier": ">", "TGI": 100}
{"Molecule": "Cc1cccc(-c2nc3ccc([N+](=O)[O-])cc3c(=O)o2)c1", "Value unit": "µM", "Modifier": ">", "TGI": 100}
{"Molecule": "C/C1=C\\CC[C@@]2(C)O[C@@H]2[C@H]2OC(=O)[C@@H](CN(C)C)[C@@H]2CC1", "Value unit": "µM", "Modifier": "=", "TGI": 26.9}
{"Molecule": "O=c1c2ccccc2[se]n1-c1cccnc1", "Value unit": "µM", "Modifier": "=", "TGI": 84.6}
{"Molecule": "COc1ccc2nc3ccc(OC)cc3c(S(=O)CCCl)c2c1 (stereo not drawn)", "Value unit": "µM", "Modifier": "=", "TGI": 30.3}
{"Molecule": "C#Cc1cccc(Nc2ncnc3cc(OC)c(OCCCCCCC(=O)NO)cc23)c1", "Value unit": "µM", "Modifier": "=", "TGI": 5.69}
{"Molecule": "O=[N+]([O-])c1ccc(/C=N/n2c(CO)nc3ccccc32)o1", "Value unit": "µM", "Modifier": "=", "TGI": 27.6}
{"Molecule": "CCc1nc(N)nc(N)c1-c1ccc2nn(-c3ccccc3)[n+]([O-])c2c1", "Value unit": "µM", "Modifier": "=", "TGI": 26.3}
{"Molecule": "C[C@H]1c2cccc(O)c2C(O)=C2C(=O)[C@]3(O)C(O)=C(C(N)=O)C(=O)[C@@H](N(C)C)[C@@H]3[C@@H](O)[C@@H]21", "Value unit": "µM", "Modifier": "=", "TGI": 9.88}
{"Molecule": "O=C(CCCn1ccnc1[N+](=O)[O-])NCCn1cncc1[N+](=O)[O-]", "Value unit": "µM", "Modifier": ">", "TGI": 100}
{"Molecule": "O=C(OCc1ccc2cccc(O)c2n1)N1CCN(C(=O)c2cc3cc(F)ccc3[nH]2)CC1", "Value unit": "µM", "Modifier": "=", "TGI": 2.21}
{"Molecule": "COc1ccc(N=C2SC(=N/N=c3\\sc4ccccc4n3C)SC2=Nc2ccc(OC)cc2)cc1", "Value unit": "µM", "Modifier": ">", "TGI": 100}
{"Molecule": "CCN1CCN(c2ccc(Nc3cc(N(C)C(=O)Nc4c(Cl)c(OC)cc(OC)c4Cl)ncn3)cc2)CC1", "Value unit": "µM", "Modifier": "=", "TGI": 21.1}
{"Molecule": "CCCCCCCCCCCCCCCCCCNc1ccn(C2OC(COP(=O)(O)OCC3OC(n4cc(C)c(=O)[nH]c4=O)CC3O)C(O)C2O)c(=O)n1 (stereo not drawn)", "Value unit": "µM", "Modifier": "=", "TGI": 29.9}
{"Molecule": "CC(SC(C)C(=O)N/N=C/c1cccc(Cl)c1)C(=O)N/N=C\\c1cccc(Cl)c1 (stereo not drawn)", "Value unit": "µM", "Modifier": "=", "TGI": 41.6}
{"Molecule": "CC(C)C1OC23CCCCC2C(C#N)(C#N)C1(C#N)C(=N)O3 (stereo not drawn)", "Value unit": "µM", "Modifier": "=", "TGI": 39.8}
{"Molecule": "COc1ccc2c(c1)C(C)Cc1c(Cl)ncnc1N2C (stereo not drawn)", "Value unit": "µM", "Modifier": "=", "TGI": 18.4}
{"Molecule": "O=[N+]([O-])c1cc2oc(COc3ccccc3)nc2cc1Cl", "Value unit": "µM", "Modifier": "=", "TGI": 60}
{"Molecule": "O=C1NC(=Nc2ccccc2)S/C1=C\\c1ccc2ncccc2c1", "Value unit": "µM", "Modifier": ">", "TGI": 25}
{"Molecule": "O=C(O)/C=N\\Nc1nc2ccccc2[nH]1", "Value unit": "µM", "Modifier": ">", "TGI": 100}
{"Molecule": "C[As](C)SC1OC(CO)C(O)C1O (stereo not drawn)", "Value unit": "µM", "Modifier": "=", "TGI": 3.21}
{"Molecule": "C=CC1CC12C(=O)C1OC2(C)C2C(=O)c3cc4ccccc4cc3C(=O)C12 (stereo not drawn)", "Value unit": "µM", "Modifier": "=", "TGI": 62.6}
{"Molecule": "O=S(=O)(c1ccccc1)n1c2cc3cccnc3nc2c2cccnc21", "Value unit": "µM", "Modifier": ">", "TGI": 100}
{"Molecule": "COC(=O)/C=C/c1cc(O)c2oc(-c3ccc(O)c(O)c3)c(C(=O)OC)c2c1", "Value unit": "µM", "Modifier": "=", "TGI": 11.9}
{"Molecule": "Clc1ccc2c(NCCCNc3nccc(Nc4ccc(Br)cc4)n3)ccnc2c1", "Value unit": "µM", "Modifier": "=", "TGI": 3.4}
{"Molecule": "Cn1cc(C2=C(c3ccc4ccccc4c3)C(=O)NC2=O)c2ccccc21", "Value unit": "µM", "Modifier": ">", "TGI": 25}
{"Molecule": "NS(=O)(=O)c1nn2c(Br)c(-c3ccccc3)nc2s1", "Value unit": "µM", "Modifier": "=", "TGI": 7.69}
{"Molecule": "NC(Cc1cccc([N+](=O)[O-])c1)C(=O)O (stereo not drawn)", "Value unit": "µM", "Modifier": ">", "TGI": 100}
